src = ChEMBL document CHEMBL1125966

- system tested: Thromboxane A2 receptor (Homo sapiens, UniProt P21731)
- Sequence (P21731 whole entry): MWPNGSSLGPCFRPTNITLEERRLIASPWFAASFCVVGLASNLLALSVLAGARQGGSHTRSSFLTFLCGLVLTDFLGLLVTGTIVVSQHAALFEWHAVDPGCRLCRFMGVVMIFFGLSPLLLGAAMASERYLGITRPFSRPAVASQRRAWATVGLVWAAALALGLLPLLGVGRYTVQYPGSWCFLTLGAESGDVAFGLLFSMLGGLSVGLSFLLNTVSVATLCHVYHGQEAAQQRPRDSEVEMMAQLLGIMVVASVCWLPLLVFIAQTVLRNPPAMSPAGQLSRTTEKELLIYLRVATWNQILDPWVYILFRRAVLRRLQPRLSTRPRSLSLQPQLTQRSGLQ
- test protocol: In vitro thromboxane A2 receptor antagonism through inhibition of U-46619 induced platelet aggregation in human whole blood
- Type: functional, tissue-based
- run conditions: read-out: pA2 (converted)
# Kb per record follows
reported endpoint: Kb (nM)

compound=O=C(O)CCC/C=C(/c1cccnc1)c1cccc(CCNS(=O)(=O)c2ccc(Cl)c(Cl)c2)c1 reported_endpoint=Kb reported=316
compound=O=C(O)CCC/C=C(/c1cccnc1)c1cccc(CCNS(=O)(=O)c2ccccc2)c1 reported_endpoint=Kb reported=794
compound=CC(C)(CNS(=O)(=O)c1ccc(I)cc1)c1cccc(/C(=N\OCCC(=O)O)c2cccnc2)c1 reported_endpoint=Kb reported=316
compound=O=C(O)CC/C=C(/c1cccnc1)c1cccc(CCNS(=O)(=O)c2ccccc2)c1 reported_endpoint=Kb reported=7940
compound=O=C(O)CCC/C=C(/c1cccnc1)c1cccc(CCNS(=O)(=O)c2ccc(F)cc2)c1 reported_endpoint=Kb reported=794
